Listing of entries alongside the reported kon.
- system: T1, human VEGF (hVEGF) (human, UniProt P15692 181-395);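 also: fab variants injected over immobilized hVEGF on a CM5 chip, rate constants fitted with a one-to-one Langmuir model, Kd derived as koff over kon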
- T1 construct: also called VEGF-A
- T1 sequence: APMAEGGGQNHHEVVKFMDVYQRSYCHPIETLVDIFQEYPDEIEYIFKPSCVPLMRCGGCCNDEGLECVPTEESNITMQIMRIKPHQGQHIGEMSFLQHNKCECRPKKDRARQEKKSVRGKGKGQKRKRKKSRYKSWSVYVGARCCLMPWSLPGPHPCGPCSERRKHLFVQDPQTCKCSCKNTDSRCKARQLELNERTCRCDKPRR
- assay_summary: SPR
Numeric answer only, unit M⁻¹ s⁻¹ assumed.

- LCcombo2 (G6.31 WT VH with LCcombo2 VL) (Fab, V domains shown, Fab) VH: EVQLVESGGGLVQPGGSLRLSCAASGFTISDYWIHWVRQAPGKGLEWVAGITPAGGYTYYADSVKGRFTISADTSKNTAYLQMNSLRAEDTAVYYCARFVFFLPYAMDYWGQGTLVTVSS VL: DIQMTQSPSSLSASVGDEVTITCRASQDVSTAVAWYQQKPGEAPKLLIYSASFLYSGVPSRFSGSGSGTDFTLTIESLQPEDAATYYCQQGYGAPFTFGQGTKVEIK: 599000
- LCcombo3 (G6.31 WT VH with LCcombo3 VL) (Fab, V domains shown, Fab) VH: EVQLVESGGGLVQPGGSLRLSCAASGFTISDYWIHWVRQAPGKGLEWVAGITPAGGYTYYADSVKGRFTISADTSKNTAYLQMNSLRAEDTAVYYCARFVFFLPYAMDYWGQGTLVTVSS VL: DIQMTQSPESLSASVGDEVTITCRASQDVSTAVAWYQQKPGEAPKLLIYSASFLYSGVPSRFSGSGSGTDFTLTISSLQPEDAATYYCQQGYGAPFTFGQGTKVEIK: 574000

kon measured on R19HCLC5 (Fab, V domains shown, Fab) VH: EEQLVEEGGGLVQPGESLRLSCAASGFEISDYWIHWVRQEPGEGLEWVAGITPAGGYEYYADSVEGRFTISADTSENTAYLQMNELRAEDTAVYYCARFVFFLPYAMDYWGQGELVTVSS VL: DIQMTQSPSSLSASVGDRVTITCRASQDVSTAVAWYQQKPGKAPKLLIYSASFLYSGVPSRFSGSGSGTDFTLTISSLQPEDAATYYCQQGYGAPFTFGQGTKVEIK = 707000
